# protocol_summary: Single-dose pharmacokinetics, IV and oral
# experimental_parameters: male, CD-1, mouse, serum, po, 10 mg/kg
reported_endpoint: Vd/F (L/kg)
Reply with just the number (in L/kg).

Which Vd/F is listed for `Nc1ccc(N2CCOCC2)c2nonc12` ?
134

----------
# protocol_summary: Liver microsomal stability, human
# experimental_parameters: Human microsomes, 30 min, 37 °C
Entries and their Mean Remaining Parent (NADPH-free) values follow.
The answer should read as a number with its unit following.

Would you please look over these solved cases?
Please report the recorded Mean Remaining Parent (NADPH-free) for `Nc1ccc(N2CCOCC2)c2nonc12` .
93%

Which Mean Remaining Parent (NADPH-free) value is on record for COc1ccc(N2CCN(C(c3ccc(N(C)C)cc3)c3nnnn3C(C)(C)C)CC2)cc1 (stereo not shown) ?
75%

Sample Cn1c(=O)[nH]c(=O)c2c1nc(S)n2CC(O)COc1ccc(Cl)cc1 (stereo not shown) — what was its Mean Remaining Parent (NADPH-free)?
107%

The record that follows has no Mean Remaining Parent (NADPH-free) shown yet.
Item under review: `Cc1cccc(NCc2ccc(O)c3ncccc23)c1C` . Reported Mean Remaining Parent (NADPH-free)?
1%

Source of measurements: paper PMC5378956
